Where these numbers come from: PubChem BioAssay (Tox21)

- TEST_PROTOCOL: qHTS assay to identify small molecule that activate the aryl hydrocarbon receptor (AhR) signaling pathway - cell viability counter screen (AID 743086); note: nearly all actives have a fitted effect of over 45% in size
- MEASUREMENT_CONTEXT: HepG2-AhR-luc viability, CellTiter-Fluor, 24 h; series mostly up to 70.3 µM
Results filed as inconclusive are left out. The source made the active and inactive calls. Calls come from the whole dose curve; as a rule, active = well fitted cell-killing curve with a large enough effect in the repeat runs; inconclusive = weak or mixed curves, or effect the other way; inactive = flat fitted curve, though single readings scatter.
// allowed return values: active, inactive

Example entries begin here.
[
  {
    "COMPOUND_STRUCTURE": "c1ccc(OCc2ccc(CCCN3CCOCC3)cc2)cc1",
    "GROUP_LABEL": "inactive"
  },
  {
    "COMPOUND_STRUCTURE": "O=S1(=O)c2cccc3cccc(c23)N1CCCN1CCN(c2ccc(F)cc2)CC1",
    "GROUP_LABEL": "inactive"
  },
  {
    "COMPOUND_STRUCTURE": "NC(N)=NN=C(/C=C/c1ccc([N+](=O)[O-])o1)/C=C/c1ccc([N+](=O)[O-])o1",
    "GROUP_LABEL": "active"
  }
]

# fetch the recorded call for N#Cc1c(F)cccc1F here
inactive

# fetch the recorded call for CC(=O)c1c(C)c([N+](=O)[O-])c(C(C)(C)C)c([N+](=O)[O-])c1C here
inactive

# fetch the recorded call for CCCCCCCCCO here
inactive

# fetch the recorded call for O=C(O)/C=C/c1cnc[nH]1 here
inactive

# fetch the recorded call for CC(C)CC=O here
inactive

# fetch the recorded call for N#Cc1cc2ccccc2c2ccccc12 here
inactive

====

- ASSAY_TARGET: Cytochrome P450 2C19 (Homo sapiens) (UniProt P33261)
- Sequence (P33261 whole entry, looked up): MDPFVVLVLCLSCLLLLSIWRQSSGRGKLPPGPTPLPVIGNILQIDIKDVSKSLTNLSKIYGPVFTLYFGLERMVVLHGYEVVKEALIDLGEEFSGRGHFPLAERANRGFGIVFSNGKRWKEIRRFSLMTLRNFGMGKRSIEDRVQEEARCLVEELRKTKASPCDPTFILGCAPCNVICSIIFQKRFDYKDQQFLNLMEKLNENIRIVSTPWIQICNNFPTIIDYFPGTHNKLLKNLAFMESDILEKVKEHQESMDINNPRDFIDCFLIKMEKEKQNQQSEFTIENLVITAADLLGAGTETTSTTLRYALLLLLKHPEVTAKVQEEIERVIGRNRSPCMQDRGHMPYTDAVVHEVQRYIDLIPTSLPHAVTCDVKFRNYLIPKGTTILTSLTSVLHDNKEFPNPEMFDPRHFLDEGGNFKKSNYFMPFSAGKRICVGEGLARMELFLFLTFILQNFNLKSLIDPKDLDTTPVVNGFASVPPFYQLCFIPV
- TEST_PROTOCOL: Cytochrome P450 Family 2 Subfamily C Member 19 (CYP2C19) small molecule antagonists: luciferase reporter qHTS assay (AID 1671197); note: nearly all actives have a fitted effect of over 65% in size
- MEASUREMENT_CONTEXT: P450-Glo CYP2C19 enzyme, luciferin luminescence, 1 h; series mostly up to 115 µM
Inconclusive results are not listed. The source made the active and inactive calls. Calls come from the whole dose curve; as a rule, active = well fitted inhibition curve with a large enough effect in the repeat runs; inconclusive = weak or mixed curves; inactive = no such curve, though single readings can be large or run the other way.
// allowed return values: label 1 = active, label 0 = inactive

[
  {
    "MOLECULE": "CC(C)(Oc1ccc(Cl)cc1)C(=O)OCCCOC(=O)C(C)(C)Oc1ccc(Cl)cc1",
    "ASSAY_TARGET": "Cytochrome P450 2C19 (Homo sapiens) (UniProt P33261)",
    "GROUP_LABEL": "label 1"
  },
  {
    "MOLECULE": "CC(C)c1ccccc1C(C)C",
    "ASSAY_TARGET": "Cytochrome P450 2C19 (Homo sapiens) (UniProt P33261)",
    "GROUP_LABEL": "label 1"
  },
  {
    "MOLECULE": "Cc1ccc(C(N)=O)cc1N",
    "ASSAY_TARGET": "Cytochrome P450 2C19 (Homo sapiens) (UniProt P33261)",
    "GROUP_LABEL": "label 1"
  },
  {
    "MOLECULE": "CCCC(C)C",
    "ASSAY_TARGET": "Cytochrome P450 2C19 (Homo sapiens) (UniProt P33261)",
    "GROUP_LABEL": "label 1"
  },
  {
    "MOLECULE": "C=C(C)C(=O)OC(C)C",
    "ASSAY_TARGET": "Cytochrome P450 2C19 (Homo sapiens) (UniProt P33261)",
    "GROUP_LABEL": "label 0"
  }
]

# fetch the recorded call for Cc1ncsc1CCO here
label 0

# fetch the recorded call for CC(C)CCCC(C)CCO (stereo not drawn) here
label 0

# fetch the recorded call for CC(C)(C)c1ccc(S)cc1 here
label 1
